target: MMP-12 (Homo sapiens); construct: In regard to MMP-12, catalytic domain(^100Phe˜^263Gly) was amplified with RT-PCR; His-tag; enterokinase digestion-site; made in house; assay: Assay for inhibitory activities on MMPs (fluorogenic MOCAc peptide substrate): MMP-12; type: biochemical; settings: catalytic domain 100Phe-263Gly
READOUT_TYPE: IC50 (µM)

Use the examples below as a reference point.
CC(C)[C@@H](NS(=O)(=O)c1ccc(-c2cc(-c3ccc4c(c3)OCO4)on2)cc1)C(=O)O	0.000649
COc1ccc(-c2cc(-c3ccc(S(=O)(=O)N[C@H](C(=O)O)C(C)C)cc3)no2)cc1	0.000447

P = Cc1ccc(-c2cc(-c3ccc(S(=O)(=O)N[C@@H](CC(C)C)C(=O)O)cc3)no2)cc1F
Q = CCc1ccc(-c2cc(-c3ccc(S(=O)(=O)N[C@@H](C)C(=O)O)cc3)no2)cc1
R = CC(C)[C@H](NS(=O)(=O)c1ccc(-c2cc(-c3ccc(Cl)s3)on2)cc1)C(=O)O
Kindly order the items shown according to IC50, from the highest value down. Use the labels to give the ranking in the order requested.
R, Q, P
(R: 0.000866 µM, Q: 0.000547 µM, P: 0.000245 µM)

###

target: MMP-8 (Homo sapiens, UniProt P22894); construct: In regard to MMP-8, catalytic domain (^99Phe˜^262Gly) was amplified with PCR; His-tag; enterokinase digestion-site; made in house; experiment: Assay for inhibitory activities on MMPs (fluorogenic MOCAc peptide substrate): MMP-8; type: biochemical; settings: catalytic domain 99Phe-262Gly
Sequence (P22894 99-262): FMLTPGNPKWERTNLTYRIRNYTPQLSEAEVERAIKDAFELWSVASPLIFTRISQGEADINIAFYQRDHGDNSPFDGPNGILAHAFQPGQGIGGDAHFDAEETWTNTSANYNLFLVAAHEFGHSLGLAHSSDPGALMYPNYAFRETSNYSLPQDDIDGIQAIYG
READOUT_TYPE: IC50 (µM)

Cc1ccc(-c2cc(-c3ccc(S(=O)(=O)N[C@@H](CC(C)C)C(=O)O)cc3)no2)s1 [Example C-75]	0.00198

1 = CC(C)[C@@H](NS(=O)(=O)c1ccc(-c2cc(-c3ccc4c(c3)OCO4)on2)cc1)C(=O)O [Example C-44]
2 = Cc1ccc(-c2cc(-c3ccc(S(=O)(=O)N[C@H](CC(=O)O)C(=O)O)cc3)no2)s1 [Example C-116]
Could you check which of 1 and 2 has a smaller value for IC50? Use the label to indicate which entry you chose.
2
(2: 0.0023 µM, 1: 0.00359 µM)

###

target: MMP-13 (Homo sapiens); construct: catalytic domain (^104Tyr˜^267Gly) was amplified with RT-PCR; His-tag; enterokinase digestion-site; made in house; assay: Assay for inhibitory activities on MMPs (fluorogenic MOCAc peptide substrate): MMP-13; assay type: biochemical; settings: Table 40
READOUT_TYPE: IC50 (µM)

Use the examples below as a reference point.
CCc1ccc(-c2cc(-c3ccc(S(=O)(=O)N[C@H](C(=O)O)C(C)C)cc3)no2)cc1 [Example C-13]	0.000757
Cc1ccc(-c2cc(-c3ccc(S(=O)(=O)N[C@H](Cc4ccccc4)C(=O)O)cc3)no2)s1 [Example C-124]	0.000528
COc1ccc(-c2cc(-c3ccc(S(=O)(=O)N[C@@H](C(=O)O)C(C)C)cc3)no2)cc1 [Example C-18]	0.000853
CSCC[C@@H](NS(=O)(=O)c1ccc(-c2cc(-c3ccc(OC(F)(F)F)cc3)no2)cc1)C(=O)O [Example A-108]	0.000635

a = CC(C)[C@H](NS(=O)(=O)c1ccc(-c2cc(-c3ccc(OC(F)(F)F)cc3)on2)cc1)C(=O)O [Example C-26]
b = CC(C)c1ccc(-c2cc(-c3ccc(S(=O)(=O)N[C@H](Cc4c[nH]c5ccccc45)C(=O)O)cc3)on2)cc1 [Example A-111]
c = CC(C)[C@@H](NS(=O)(=O)c1ccc(-c2cc(-c3ccc(SC(F)(F)F)cc3)no2)cc1)C(=O)O [Example A-32]
Order the records, beginning with the lowest IC50 and ending with the highest. Use the labels to give the ranking in the order requested.
c, b, a
(c: 0.000193 µM, b: 0.000465 µM, a: 0.000884 µM)

###

molecular target: MMP-12 (Homo sapiens, UniProt P39900); construct: In regard to MMP-12, catalytic domain(^100Phe˜^263Gly) was amplified with RT-PCR; His-tag; enterokinase digestion-site; made in house; assay: Assay for inhibitory activities on MMPs (fluorogenic MOCAc peptide substrate): MMP-12; assay type: biochemical; conditions: catalytic domain 100Phe-263Gly
Sequence (P39900 100-263): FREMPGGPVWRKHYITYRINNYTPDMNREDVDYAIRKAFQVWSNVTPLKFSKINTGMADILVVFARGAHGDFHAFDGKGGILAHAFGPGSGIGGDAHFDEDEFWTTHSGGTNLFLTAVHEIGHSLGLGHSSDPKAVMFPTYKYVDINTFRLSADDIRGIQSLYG
READOUT_TYPE: IC50 (µM)

Use the examples below as a reference point.
CC(C)[C@@H](NS(=O)(=O)c1ccc(-c2cc(-c3ccc(C(F)(F)F)cc3)no2)cc1)C(=O)O	0.000723
CC(C)C[C@H](NS(=O)(=O)c1ccc(-c2cc(-c3ccc(C(F)(F)F)cc3)on2)cc1)C(=O)O	0.000251
CC(C)[C@H](NS(=O)(=O)c1ccc(-c2cc(-c3ccc(F)c(F)c3)on2)cc1)C(=O)O	0.000754

a = CC(C)[C@H](NS(=O)(=O)c1ccc(-c2cc(-c3ccc4c(c3)CCO4)on2)cc1)C(=O)O
b = COc1ccc(-c2cc(-c3ccc(S(=O)(=O)N[C@@H](CC(C)C)C(=O)O)cc3)on2)cc1F
c = COc1ccc(-c2cc(-c3ccc(S(=O)(=O)N[C@@H](C(=O)O)C(C)C)cc3)no2)cc1
Order the records, beginning with the lowest IC50 and ending with the highest. Use the labels to give the ranking in the order requested.
a, c, b
(a: 0.0002 µM, c: 0.000384 µM, b: 0.000622 µM)

###

target: MMP-2 (Homo sapiens, UniProt P08253); construct: purchased Calbiochem-Novabiochem International, Inc; assay: Assay for inhibitory activities on MMPs (fluorogenic MOCAc peptide substrate): MMP-2; assay type: biochemical; conditions: MMP-2 purchased from Calbiochem-Novabiochem
Sequence (P08253 110-660, species assumed): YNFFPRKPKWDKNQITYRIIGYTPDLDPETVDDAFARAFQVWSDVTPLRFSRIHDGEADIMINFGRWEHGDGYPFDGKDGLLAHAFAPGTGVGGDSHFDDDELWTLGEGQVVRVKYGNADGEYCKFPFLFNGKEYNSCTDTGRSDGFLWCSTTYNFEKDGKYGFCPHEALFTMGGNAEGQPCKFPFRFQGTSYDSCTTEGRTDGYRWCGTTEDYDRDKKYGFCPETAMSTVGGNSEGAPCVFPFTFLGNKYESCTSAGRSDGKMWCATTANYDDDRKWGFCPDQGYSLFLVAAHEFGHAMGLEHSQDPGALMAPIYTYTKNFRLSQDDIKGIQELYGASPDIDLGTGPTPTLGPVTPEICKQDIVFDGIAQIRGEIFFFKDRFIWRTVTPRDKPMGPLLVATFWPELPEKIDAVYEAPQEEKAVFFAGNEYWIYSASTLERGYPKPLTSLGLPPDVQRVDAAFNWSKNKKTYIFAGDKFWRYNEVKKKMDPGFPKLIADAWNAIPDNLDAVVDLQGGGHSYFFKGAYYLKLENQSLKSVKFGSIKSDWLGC
READOUT_TYPE: IC50 (nM)

Cc1ccc(-c2cc(-c3ccc(S(=O)(=O)N[C@H](Cc4ccccc4)C(=O)O)cc3)no2)s1	0.0926

1 = CSc1ccc(-c2cc(-c3ccc(S(=O)(=O)N[C@H](C)C(=O)O)cc3)no2)cc1
2 = CC(C)c1ccc(-c2cc(-c3ccc(S(=O)(=O)N[C@@H](C(=O)O)C(C)C)cc3)no2)cc1
Recorded IC50 values differ for 1 and 2 ; which one is higher? Use the label to indicate which entry you chose.
1
(1: 0.0934 nM, 2: 0.049 nM)

P = CSc1ccc(-c2cc(-c3ccc(S(=O)(=O)N[C@@H](C(=O)O)C(C)C)cc3)no2)cc1
Q = Cc1ccc(-c2cc(-c3ccc(S(=O)(=O)N[C@@H](C(=O)O)C(C)C)cc3)on2)s1
Could you check which of P and Q has a smaller value for IC50? Use the label to indicate which entry you chose.
P

1 = CC(C)[C@@H](NS(=O)(=O)c1ccc(-c2cc(-c3ccc(OC(F)(F)F)cc3)no2)cc1)C(=O)O
2 = Cc1ccc(-c2cc(-c3ccc(S(=O)(=O)N[C@@H](C(=O)O)C(C)C)cc3)no2)s1
Could you check which of 1 and 2 has a smaller value for IC50? Use the label to indicate which entry you chose.
2

###

target: MMP-12 (Homo sapiens); construct: In regard to MMP-12, catalytic domain(^100Phe˜^263Gly) was amplified with RT-PCR; His-tag; enterokinase digestion-site; made in house; experiment: Assay for inhibitory activities on MMPs (fluorogenic MOCAc peptide substrate): MMP-12; format: biochemical; settings: catalytic domain 100Phe-263Gly
READOUT_TYPE: IC50 (µM)

Use the examples below as a reference point.
CCc1ccc(-c2cc(-c3ccc(S(=O)(=O)N[C@H](Cc4ccccc4)C(=O)O)cc3)no2)cc1 [Example C-123]	0.00076
CCC(C)[C@H](NS(=O)(=O)c1ccc(-c2cc(-c3ccc(SC)cc3)on2)cc1)C(=O)O (some centres unmarked) [Example C-97]	0.000239
CCc1ccc(-c2cc(-c3ccc(S(=O)(=O)N[C@@H](CC(C)C)C(=O)O)cc3)no2)s1 [Example C-77]	0.000676
Cc1ccc(-c2cc(-c3ccc(S(=O)(=O)N[C@@H](C(=O)O)C(C)C)cc3)no2)cc1F [Example C-38]	0.000245
Cc1ccc(-c2cc(-c3ccc(S(=O)(=O)N[C@@H](C(=O)O)C(C)C)cc3)no2)cc1 [Example C-8]	0.000559

a = CC(C)[C@H](NS(=O)(=O)c1ccc(-c2cc(-c3ccc(Cl)c(F)c3)on2)cc1)C(=O)O [Example C-37]
b = CC(C)C[C@H](NS(=O)(=O)c1ccc(-c2cc(-c3ccc(Cl)s3)on2)cc1)C(=O)O [Example C-79]
Recorded IC50 values differ for a and b ; which one is higher? Use the label to indicate which entry you chose.
b
(b: 0.0008 µM, a: 0.000172 µM)
